Literature survey of Ki (system: Neuromedin-K receptor (Homo sapiens)).

>>> data_value("O=C(c1ccc(-c2cccs2)cc1)N1CCn2c(nnc2-c2csc(-c3ccc(F)cc3F)n2)C1")
"< 500 nM"
>>> data_value("Cc1cc(Cl)c(COc2cccc3c(-n4cc(F)cn4)cc(C)nc23)c(Cn2cccc(C#N)c2=O)n1")
"2700 nM"
>>> data_value("O=C(c1ccc(F)cc1)N1CCn2c(nnc2-c2ccccn2)C1")
"1000 to 5000 nM"
>>> data_value("C[C@@H]1c2nnc(-c3csc(-c4ccccc4)n3)n2CCN1C(=O)c1ccc(F)cc1")
"< 500 nM"
>>> data_value("O=C(c1ccc(-c2cccs2)cc1)N1CCn2c(nnc2-c2cc(-c3ccccc3)nn2CCO)C1")
"< 500 nM"

Below are some compounds; for each one, tell me its Ki.
1. O=C(c1ccc(F)cc1)N1CCn2c(nnc2-c2nc3c(s2)CCCC3)C1
2. C[C@H]1c2nnc(-c3nc(-c4ccc(F)cc4)no3)n2CCN1C(=O)c1ccc(-c2cccs2)cc1

Result:
1: < 500 nM; 2: < 500 nM

Batch of 5 compounds: report Ki for each.
1. C[C@H]1c2nnc(-c3ccccn3)n2CCN1C(=O)c1ccc(F)cc1
2. CN1CCN(c2ccc(-c3nc(-c4nnc5n4CCN(C(=O)c4ccc(F)cc4)C5)cs3)cc2)CC1
3. O=C(c1cc(-c2ccc(Oc3ccccc3)cc2)n[nH]1)N1CCn2c(nnc2-c2ccccn2)C1
4. CO/N=C(\CN(C)C(=O)c1cc(Cl)cc(Cl)c1)[C@H](CCN1CCC(N2CCCN(Cc3ccc[n+]([O-])c3)C2=O)CC1)c1ccc(Cl)c(Cl)c1
5. CC1c2nnc(-c3csc(N4CCOCC4)n3)n2CCN1C(=O)c1ccc(F)cc1 (stereo not shown)

Result:
["> 5000 nM", "500 to 1000 nM", "1000 to 5000 nM", "0.4 nM", "< 500 nM"]

Hello, I would appreciate it if you could give Ki for each entry below.
1. O=C(c1cnc(-c2ccccc2)nc1)N1CCn2c(nnc2-c2ccc3ccccc3n2)C1
2. CN(C)c1ccc(-c2nc(-c3nnc4n3CCN(C(=O)c3ccc(-c5cccs5)cc3)C4)cs2)cc1
3. CC1c2nnc(-c3csc(-c4ccc(F)cc4)n3)n2CCN1C(=O)c1ccc(F)cc1 (stereo not shown)
4. COc1ccccc1-c1nc(-c2nnc3n2CCN(C(=O)c2ccc(F)cc2)C3)cs1

Result:
["1000 to 5000 nM", "< 500 nM", "< 500 nM", "1000 to 5000 nM"]
